Hello, the source for this data is patent US20250129168A1, in case you need it.

target: recombinant human-Dectin-1 mouse Fc fusion (human) (UniProt Q9BXN2); assay: Octet BLI, response at X
Endpoint Label: X = 350
Provide a numeric answer; units are not to be included.

Guide cases for X = 350, answers given:
1) 2M24A.1.15 (Fab, V domains shown) VH: QVQLVQSGAEVKKPGASVKVSCKSSGYTFTDYYIHWVRQAPGQGLEWMGWINPNSGDTNYAQKFQGRITMTRDTSISTAYLELSRLRSDDTAVFYCAANSGSYSFGYWGQGTLVTVSS VL: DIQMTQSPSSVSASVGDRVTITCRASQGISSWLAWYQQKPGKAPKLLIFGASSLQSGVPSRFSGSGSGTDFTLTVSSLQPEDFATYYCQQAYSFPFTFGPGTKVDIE; 0.0314
2) 2M24A.1.20 (Fab, V domains shown) VH: QVQLVQSGAEVKKPGASVKVSCKSSGYTFTDYYIHWVRQAPGQGLEWMGWINPNSGDTNYAQKFQGRITMTRDTSISTAYLELSRLRSDDTAVFYCARNSGSYSAGYWGQGTLVTVSS VL: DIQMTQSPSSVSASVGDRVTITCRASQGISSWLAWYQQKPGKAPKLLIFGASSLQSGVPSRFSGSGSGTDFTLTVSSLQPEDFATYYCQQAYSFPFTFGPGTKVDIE; 0.0215
3) 2M24A.1.18 (Fab, V domains shown) VH: QVQLVQSGAEVKKPGASVKVSCKSSGYTFTDYYIHWVRQAPGQGLEWMGWINPNSGDTNYAQKFQGRITMTRDTSISTAYLELSRLRSDDTAVFYCARNSGAYSFGYWGQGTLVTVSS VL: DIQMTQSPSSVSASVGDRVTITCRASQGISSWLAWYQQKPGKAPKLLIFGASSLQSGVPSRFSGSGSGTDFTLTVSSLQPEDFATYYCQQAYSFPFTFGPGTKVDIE; 0.124
4) 2M24A.1.22 (Fab, V domains shown) VH: QVQLVQSGAEVKKPGASVKVSCKSSGYTFTDYYIHWVRQAPGQGLEWMGWINPNSGDTNYAQKFQGRITMTRDTSISTAYLELSRLRSDDTAVFYCARNSGSYSFGAWGQGTLVTVSS VL: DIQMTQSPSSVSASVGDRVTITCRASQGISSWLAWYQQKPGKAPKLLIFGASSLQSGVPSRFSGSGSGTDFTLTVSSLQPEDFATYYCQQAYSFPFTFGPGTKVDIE; 0.112
5) 2M24A.1.17 (Fab, V domains shown) VH: QVQLVQSGAEVKKPGASVKVSCKSSGYTFTDYYIHWVRQAPGQGLEWMGWINPNSGDTNYAQKFQGRITMTRDTSISTAYLELSRLRSDDTAVFYCARNSASYSFGYWGQGTLVTVSS VL: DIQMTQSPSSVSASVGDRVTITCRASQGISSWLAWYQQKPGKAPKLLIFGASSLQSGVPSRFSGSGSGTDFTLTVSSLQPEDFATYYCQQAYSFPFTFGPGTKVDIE; 0.129

X = 350 for 2M24A.1.16 (Fab, V domains shown) VH: QVQLVQSGAEVKKPGASVKVSCKSSGYTFTDYYIHWVRQAPGQGLEWMGWINPNSGDTNYAQKFQGRITMTRDTSISTAYLELSRLRSDDTAVFYCARNAGSYSFGYWGQGTLVTVSS VL: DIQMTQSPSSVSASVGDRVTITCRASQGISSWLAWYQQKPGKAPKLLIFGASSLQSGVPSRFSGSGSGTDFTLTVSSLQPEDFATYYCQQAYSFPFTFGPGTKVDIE ?
0.114

X = 350 for 2M24A.1.21 (Fab, V domains shown) VH: QVQLVQSGAEVKKPGASVKVSCKSSGYTFTDYYIHWVRQAPGQGLEWMGWINPNSGDTNYAQKFQGRITMTRDTSISTAYLELSRLRSDDTAVFYCARNSGSYSFAYWGQGTLVTVSS VL: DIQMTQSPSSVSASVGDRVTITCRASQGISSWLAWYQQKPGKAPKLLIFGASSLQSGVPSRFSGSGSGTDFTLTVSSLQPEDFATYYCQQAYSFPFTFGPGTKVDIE ?
0.114

X = 350 for 2M24A.1.19 (Fab, V domains shown) VH: QVQLVQSGAEVKKPGASVKVSCKSSGYTFTDYYIHWVRQAPGQGLEWMGWINPNSGDTNYAQKFQGRITMTRDTSISTAYLELSRLRSDDTAVFYCARNSGSYAFGYWGQGTLVTVSS VL: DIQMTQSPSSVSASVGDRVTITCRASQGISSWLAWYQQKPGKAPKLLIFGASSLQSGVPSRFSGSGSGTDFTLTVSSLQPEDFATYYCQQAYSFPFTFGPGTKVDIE ?
0.0983
